test system: SK-ES-1; experiment: relative viability vs DMSO control (72 h) (fraction); higher = more viable cells; conditions: 0.00051 µM
value.type: relative viability
One number for each entry.

# molecular.string, val
records = [
    ("CC1(C)CC=C(c2nc(C3CC(C)(C)OC(C)(C)C3)ccc2NC(=O)c2nc(C#N)c[nH]2)CC1", 1.06),
    ("CC(C)Oc1ccc(-c2nn([C@@H](C)c3oc4ccc(F)cc4c(=O)c3-c3cccc(F)c3)c3ncnc(N)c23)cc1F", 1.07),
    ("Cn1cc(C2=C(c3cn(C4CCN(Cc5ccccn5)CC4)c4ccccc34)C(=O)NC2=O)c2ccccc21", 1.06),
    ("COCCNc1cc(NC(=O)N2CCCc3cc(CN4CCN(C)CC4=O)c(C=O)nc32)ncc1C#N", 0.979),
    ("Cc1cccc(-c2nn3c(c2-c2ccnc4ccc(C(N)=O)cc24)CCC3)n1", 1.03),
    ("N#CCNC(=O)c1ccc(-c2ccnc(Nc3ccc(N4CCOCC4)cc3)n2)cc1", 1.05),
]

Next, consider the following compound.
Bench note: what relative viability did COC(=O)N[C@@H](C)CNc1nccc(-c2cn(C(C)C)nc2-c2cc(Cl)cc(NS(C)(=O)=O)c2F)n1 show? 0.948

###

Assignment: determine reported relative viability for the given compounds.
tested on: RD-ES; assay: relative viability vs DMSO control (72 h) (fraction); higher = more viable cells; conditions: 0.00017 µM
One number for each entry.

The cases that follow already have their relative viability on record.
# compound, relative viability
data = [
    ("CNC(=O)c1nnc(NC(=O)C2CC2)cc1Nc1cccc(-c2ncn(C)n2)c1OC", 0.987),
    ("O=C(Nc1nc2cccc(-c3ccc(CN4CCS(=O)(=O)CC4)cc3)n2n1)C1CC1", 0.932),
    ("N#CCNC(=O)c1ccc(-c2ccnc(Nc3ccc(N4CCOCC4)cc3)n2)cc1", 0.985),
]

For every item in the list below, what is its measured relative viability?
1. CO[C@H]1C[C@@H]2CC[C@@H](C)[C@@](O)(O2)C(=O)C(=O)N2CCCC[C@H]2C(=O)O[C@H]([C@H](C)C[C@@H]2CC[C@@H](OCCO)[C@H](OC)C2)CC(=O)[C@H](C)/C=C(\C)[C@@H](O)[C@@H](OC)C(=O)[C@H](C)C[C@H](C)/C=C/C=C/C=C/1C
2. CC(C)(C)c1nc(-c2cccc(NS(=O)(=O)c3c(F)cccc3F)c2F)c(-c2ccnc(N)n2)s1
3. CC(C)Oc1ccc(-c2nn([C@@H](C)c3oc4ccc(F)cc4c(=O)c3-c3cccc(F)c3)c3ncnc(N)c23)cc1F

[0.967, 0.94, 1]

Hello, I would appreciate it if you could give relative viability for each entry below.
1. CC(C)NC[C@@H](C(=O)N1CCN(c2ncnc3c2[C@H](C)C[C@H]3O)CC1)c1ccc(Cl)cc1
2. COc1cc(CCc2cc(NC(=O)c3ccc(N4CC(C)NC(C)C4)cc3)n[nH]2)cc(OC)c1 (stereo not drawn)

1: 0.945; 2: 0.946

###

test system: SK-ES-1; assay: relative viability vs DMSO control (72 h) (fraction); higher = more viable cells; conditions: 0.3704 µM
value.type: relative viability

# molecule, target.desc, value.type, val
data = [
    ("Clc1ccc(Nc2nnc(Cc3ccncc3)c3ccccc23)cc1 [Vatalanib]", "SK-ES-1", "relative viability", 1.04),
    ("CNC(=O)c1ccccc1Sc1ccc2c(/C=C/c3ccccn3)n[nH]c2c1 [Axitinib]", "SK-ES-1", "relative viability", 0.829),
    ("CC(C)(O)CNc1nc(Nc2ccnc(C(F)(F)F)c2)nc(-c2cccc(C(F)(F)F)n2)n1 [Enasidenib]", "SK-ES-1", "relative viability", 0.968),
    ("Cn1cc(C2=C(c3cn(C4CCN(Cc5ccccn5)CC4)c4ccccc34)C(=O)NC2=O)c2ccccc21 [Enzastaurin]", "SK-ES-1", "relative viability", 1.04),
    ("C[C@H](Nc1ncnc2nc[nH]c12)c1cc2cccc(Cl)c2c(=O)n1-c1ccccc1 [Duvelisib]", "SK-ES-1", "relative viability", 0.96),
    ("O=C(Nc1ccc(OC(F)(F)Cl)cc1)c1cnc(N2CC[C@@H](O)C2)c(-c2cc[nH]n2)c1 [Asciminib]", "SK-ES-1", "relative viability", 1.02),
    ("CCN(CC)CCNC(=O)c1c(C)[nH]c(/C=C2\\C(=O)Nc3ccc(F)cc32)c1C [Sunitinib]", "SK-ES-1", "relative viability", 0.578),
    ("C[C@]12O[C@H](C[C@]1(O)CO)n1c3ccccc3c3c4c(c5c6ccccc6n2c5c31)CNC4=O [Lestaurtinib]", "SK-ES-1", "relative viability", 0.0863),
]

Report relative viability for every entry below.
1. CNC(=O)c1nnc(NC(=O)C2CC2)cc1Nc1cccc(-c2ncn(C)n2)c1OC
2. O=S(=O)(c1cccc2cnccc12)N1CCCNCC1 [Fasudil]

[1.04, 1]
